B1: Azoarcus group I ribozyme (parent)
chain: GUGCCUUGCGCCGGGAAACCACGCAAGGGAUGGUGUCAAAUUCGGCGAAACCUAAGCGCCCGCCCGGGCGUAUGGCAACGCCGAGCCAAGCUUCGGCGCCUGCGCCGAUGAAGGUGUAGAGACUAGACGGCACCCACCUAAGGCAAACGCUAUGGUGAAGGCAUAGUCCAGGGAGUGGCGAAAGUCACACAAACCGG

# Variants of: B1
# protocol_text: reverse-splicing fitness (ratio to wild type); higher = more active; in vitro selection; Mg2+ level not given
For each record, write down the corresponding reverse-splicing fitness.

Consider the reported reverse-splicing fitness for these variants:
[[record]]
mutant_id = "C82G A120G A145U C150G"
measured = 0.00803

[[record]]
mutant_id = "C82G A111G A120U C150G C169A U176G"
measured = 0.00267

[[record]]
mutant_id = "A120U A145U C150U U176A"
measured = 0.608

[[record]]
mutant_id = "A111C A120G A145C C169U U176G"
measured = 0.00492

[[record]]
mutant_id = "C82G A145U C150G"
measured = 0.0473

[[record]]
mutant_id = "A120C A145C C150G C169G U176G"
measured = 0.00352

[[record]]
mutant_id = "C82U A120C A145U C150G C169G U176C"
measured = 0.00491

[[record]]
mutant_id = "A111U A120C A145C C150A C169U U176C"
measured = 0.0123


// batch mode: one reverse-splicing fitness value per listed entry
1. A111C A145G C150A C169G U176C
2. C82A A111C A120C A145U C150U C169U U176C
3. C82A A111G A120C C150U C169G U176A
4. C82G A120U A145U C150U C169A U176A
5. C82U A111C A120G A145U C150A C169G U176C
6. C82G A111G A120C A145C U176A

Result:
1. 0.0293
2. 0.0133
3. 0.0173
4. 0.00183
5. 0.0126
6. 0.0266

// batch mode: one reverse-splicing fitness value per listed entry
1. C82A A111U A120U A145U C150U C169G U176G
2. C82U A111C A120G A145G C150G C169A U176C
3. C82A A145U C150U C169U
4. C82G A111U A120G A145U C169U U176G
5. C82A A120G A145U C150U C169A
6. C82G A111U A120C A145G C150A C169G U176A
7. C82G A111C A145C C150U

Result:
[0.00224, 0.011, 0.0127, 0.00419, 0.013, 0.0181, 0.0631]
